# target-of-assay: Cst6 (UniProt P40535)
# Sequence (P40535 whole entry): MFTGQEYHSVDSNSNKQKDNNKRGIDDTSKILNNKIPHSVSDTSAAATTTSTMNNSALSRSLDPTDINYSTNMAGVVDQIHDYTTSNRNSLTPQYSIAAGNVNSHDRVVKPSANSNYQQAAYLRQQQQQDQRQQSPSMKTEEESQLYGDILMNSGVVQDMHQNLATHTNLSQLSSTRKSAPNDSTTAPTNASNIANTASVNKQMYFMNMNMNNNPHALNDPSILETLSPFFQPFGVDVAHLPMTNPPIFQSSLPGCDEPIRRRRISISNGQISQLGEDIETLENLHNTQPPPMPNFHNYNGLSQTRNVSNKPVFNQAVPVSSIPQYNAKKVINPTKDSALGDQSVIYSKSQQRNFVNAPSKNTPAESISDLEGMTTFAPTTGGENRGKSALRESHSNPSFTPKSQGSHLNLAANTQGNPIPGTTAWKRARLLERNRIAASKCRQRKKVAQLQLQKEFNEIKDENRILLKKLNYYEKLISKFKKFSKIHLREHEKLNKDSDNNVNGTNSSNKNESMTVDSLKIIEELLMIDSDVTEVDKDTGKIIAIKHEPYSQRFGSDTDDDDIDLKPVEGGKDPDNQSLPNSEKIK
# experiment-summary: PBM E-score (8-mer binding enrichment) (E-score (-0.5 to 0.5)); higher = stronger / more preferred TF binding
# assay-context: protein concentration: 200 nM; construct: GST-DNA-binding domain
In all, about 33,000 sequences were measured (“E-score (-0.5 to 0.5)”: median about -0.016, highest 2% from about 0.31 on). The full list was thinned out, with the highest values kept by preference.
experimental-readout: PBM E-score
Answers are plain numbers.

Example sequences with recorded PBM E-score:
> print(dat)
        seq  observed.measurement
1  AAAAATAG                 0.118
2  AAATTCGC                 0.211
3  AATAATAT                 0.305

Respectfully, I request PBM E-score for each entry included below.
1. AAAAATAA
2. CATAAGCA
3. CAACAGCA

0.292
-0.0945
0.00053

Batch of 5 sequences: report PBM E-score for each.
1. AACAATAC
2. CGCAGTAG
3. AATAATGT
4. AACAATAT
5. AAATTCGG

0.156
-0.101
0.181
0.37
0.0235

====

# target-of-assay: Cst6 (UniProt P40535)
# experiment-summary: PBM E-score (8-mer binding enrichment) (E-score (-0.5 to 0.5)); higher = stronger / more preferred TF binding
# assay-context: protein concentration: 200 nM; construct: GST-DNA-binding domain
The full ranking holds about 33,000 sequences; the median of “E-score (-0.5 to 0.5)” is about -0.016, and the highest 2% start at about 0.31. Only a selection was taken, and the highest values are over-represented in it overall.
experimental-readout: PBM E-score

Solved entries:
> print(dat)
        seq  experimental.readout  observed.measurement
1  TGCGCCAA           PBM E-score               -0.0304
2  GTCACCGA           PBM E-score                 0.426
3  AAGTCACA           PBM E-score                 0.119
4  ATTTTCTG           PBM E-score                 0.115

# batch size: 7; output PBM E-score per entry
1. TAAGAACA
2. CTAGTTCC
3. ACGTAAAC
4. CGACATCA
5. GGGTGCCA
6. ATACCCTG
7. ATGTAAAT

1. 0.312
2. 0.0382
3. 0.31
4. 0.411
5. -0.137
6. -0.0744
7. 0.309

State recorded PBM E-score for all listed sequences.
1. AACTCTGT
2. CGACATCC
3. CAAGAACA
4. GAACCAAA

0.0458
-0.0566
0.053
-0.0818

Hi team, please reply with PBM E-score for each item in this list.
1. AGAAAAAT
2. GTCATTGA
3. GACATTGA

[0.17, 0.391, 0.096]

====

Kindly supply the reported PBM E-score values for the records listed here.
# target-of-assay: Cst6 (UniProt P40535)
# experiment-summary: PBM E-score (8-mer binding enrichment) (E-score (-0.5 to 0.5)); higher = stronger / more preferred TF binding
# assay-context: protein concentration: 200 nM; construct: GST-DNA-binding domain
In all, about 33,000 sequences were measured (“E-score (-0.5 to 0.5)”: median about -0.016, highest 2% from about 0.31 on). Only a selection was taken, and the highest values are over-represented in it overall.

> print(dat)
        seq  experimental.readout  observed.measurement
1  GTCTGGGA           PBM E-score                -0.281
2  GACGTACC           PBM E-score                 0.349
3  AGGCAAAT           PBM E-score                 0.164

Batch: PBM E-score for all items listed.
1. ACGTCATC
2. CTCACCTC

0.497
0.0122

Items follow; give PBM E-score for each.
1. GGTATTTA
2. GTGTCATA

1: 0.0257; 2: 0.249

Provide PBM E-score for all items below, preserving their order.
1. ACCTCCGT
2. CCACGGCG

1. -0.0629
2. 0.309

Go through the items and report each one's PBM E-score.
1. GGATGCAA
2. ATACAGCC
3. CCTTCCGA

[-0.129, -0.059, -0.149]
